The entries below are paired with their reported MIC.
system: S. pyogenes ATCC 19615; experiment: MIC broth microdilution; format: cell-based; settings: Streptococcus pyogenes, ATCC19615, 20 h; S. pyogenes ATCC 19615; CAMHB with 3% lysed horse blood; read-out: MIC
Use ng/mL as the unit, but write only the number.

Known results for compounds:
C=C(NC(=O)c1csc(C2=N[C@@H]3c4csc(n4)[C@H]4NC(=O)c5csc(n5)[C@H]([C@](C)(O)[C@@H](C)O)NC(=O)C5CSC(=N5)/C(=C/C)NC(=O)[C@H]([C@@H](C)O)NC(=O)c5csc(n5)[C@]3(CC2)NC(=O)[C@H](C)NC(=O)C(=C)NC(=O)[C@H](C)NC(=O)[C@H]([C@@H](C)CC)N[C@@H]2C=Cc3c([C@H](C)O)cc(nc3[C@H]2O)C(=O)O[C@@H]4C)n1)C(=O)NC(=CNC(=O)c1ccc(Cl)cc1)C(N)=O: 2
C=C(NC(=O)c1csc(C2=N[C@@H]3c4csc(n4)[C@H]4NC(=O)c5csc(n5)[C@H]([C@](C)(O)[C@@H](C)O)NC(=O)C5CSC(=N5)/C(=C/C)NC(=O)[C@H]([C@@H](C)O)NC(=O)c5csc(n5)[C@]3(CC2)NC(=O)[C@H](C)NC(=O)C(=C)NC(=O)[C@H](C)NC(=O)[C@H]([C@@H](C)CC)N[C@@H]2C=Cc3c([C@H](C)O)cc(nc3[C@H]2O)C(=O)O[C@@H]4C)n1)C(=O)NC(=CNC(=O)c1ccc(Br)cc1)C(N)=O: 2

From here, focus on the item given below.
INPUT: Tell me the measured MIC of "C=C(NC(=O)c1csc(C2=N[C@@H]3c4csc(n4)[C@H]4NC(=O)c5csc(n5)[C@H]([C@](C)(O)[C@@H](C)O)NC(=O)C5CSC(=N5)/C(=C/C)NC(=O)[C@H]([C@@H](C)O)NC(=O)c5csc(n5)[C@]3(CC2)NC(=O)[C@H](C)NC(=O)C(=C)NC(=O)[C@H](C)NC(=O)[C@H]([C@@H](C)CC)N[C@@H]2C=Cc3c([C@H](C)O)cc(nc3[C@H]2O)C(=O)O[C@@H]4C)n1)C(=O)NC(=CNC(=O)COC)C(N)=O" , please.
OUTPUT: 8
